- subject-of-test: MAP kinase-interacting serine/threonine-protein kinase 1 (Homo sapiens)
- Sequence (Q9BUB5 whole entry): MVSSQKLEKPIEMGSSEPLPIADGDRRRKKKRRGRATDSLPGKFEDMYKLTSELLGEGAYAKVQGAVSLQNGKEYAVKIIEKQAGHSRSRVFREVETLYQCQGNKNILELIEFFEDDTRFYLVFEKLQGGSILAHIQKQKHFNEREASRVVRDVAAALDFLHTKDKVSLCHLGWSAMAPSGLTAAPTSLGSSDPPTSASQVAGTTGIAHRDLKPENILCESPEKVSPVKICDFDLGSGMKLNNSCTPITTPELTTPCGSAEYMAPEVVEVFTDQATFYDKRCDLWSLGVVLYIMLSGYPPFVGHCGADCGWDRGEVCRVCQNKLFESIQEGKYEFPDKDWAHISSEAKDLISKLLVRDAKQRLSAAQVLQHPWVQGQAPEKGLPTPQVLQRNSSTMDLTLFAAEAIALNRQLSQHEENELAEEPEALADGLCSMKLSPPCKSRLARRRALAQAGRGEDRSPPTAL
Field: pIC50. Provide a value for each of the molecules that follow.
// field semantics: pIC50 = negative decimal log of concentration (mol/L)

pIC50 for `COc1cccc(Nc2ncnc3sc4c(c23)CCCC4)c1` ?
5.77

pIC50 for `COc1cccc(Nc2ncnc3sc4c(c23)CCN(S(=O)(=O)c2ccccc2[N+](=O)[O-])C4)c1` ?
5.69

pIC50 for `Cc1ccc(Nc2ncnc3sc4c(c23)CCN(S(=O)(=O)c2ccc(F)cc2F)C4)c(Br)c1` ?
5.77

pIC50 for `Fc1ccc(Nc2ncnc3sc4c(c23)CCN(Cc2ccccc2)C4)c(Br)c1` ?
5.95

pIC50 for `CN1CCc2c(sc3ncnc(Nc4ccc(F)cc4F)c23)C1` ?
5.96

pIC50 for `COc1cc(F)ccc1Nc1ncnc2sc3c(c12)CCN(S(=O)(=O)c1cccs1)C3` ?
6.03

pIC50 for `COc1cccc(Nc2ncnc3sc4c(c23)CCN(C)C4)c1` ?
5.64

pIC50 for `O=[N+]([O-])c1ccccc1S(=O)(=O)N1CCc2c(sc3ncnc(Nc4cccc(Cl)c4)c23)C1` ?
5.79

pIC50 for `COc1cccc(Nc2ncnc3sc4c(c23)CCN(C(=O)OC(C)(C)C)C4)c1` ?
5.71

pIC50 for `O=[N+]([O-])c1ccccc1S(=O)(=O)N1CCc2c(sc3ncnc(Nc4ccc(F)cc4Br)c23)C1` ?
5.94

pIC50 for `O=S(=O)(c1cccs1)N1CCc2c(sc3ncnc(Nc4ccc(Cl)cc4)c23)C1` ?
5.79
